- System: SR leukemia
- experiment_description: NCI-60 one-dose screen, 48 h (100 = growth as untreated, 0 = no growth, -100 = all killed)
- recorded_conditions: 10 µM
The panel holds about 83,000 compounds, 20% with a hit somewhere; the sample as a whole holds those more often.
Class assignment keyed on growth, ranges bottom bin: < 30%; middle bin: ≥ 30% and < 80%; top bin: ≥ 80%

Previously resolved entries follow.
1. N#Cc1c(-c2ccccc2)nc(SCC(=O)N2CCOCC2)[nH]c1=O
top bin
2. COc1cccc(-c2nnc(COc3ccc(-c4nc5ccccc5[nH]4)cc3OC)o2)c1
bottom bin
3. CC1(C)CCc2cc(-c3ccn(S(=O)(=O)c4ccc(Cl)cc4)n3)ccc2O1
middle bin
4. COc1ccc(CSc2nc3cc(OC)c(OC)cc3c(=O)n2-c2ccc(OC)cc2OC)cc1
middle bin
5. COc1ccccc1NC1=C(N2CCCCC2)C(=O)c2ccccc2C1=O
middle bin
6. CCCN(CCC)CCCNC(=O)c1cc2c(-c3ccc(OC)c(OC)c3)nn(C)c2s1
bottom bin

Ask: Which growth band matches `O=C(NC1CCCC1)c1ccc(N2CCC(NCc3cccc(C(F)(F)F)c3)CC2)cc1` ?
Reply: bottom bin

Ask: Kindly state the category for this compound: `CCc1cc2n(n1)-c1ncc(C(=O)OC)cc1Oc1ccccc1-2`
Reply: top bin

Ask: Entry `Nc1ccccc1NC(=O)CCCCCCC(=O)Nc1ccc2c(c1)/C(=C/c1ccc[nH]1)C(=O)N2` belongs to which category?
Reply: bottom bin

* * *

- Tested on: SK-MEL-2 melanoma
- experiment_description: NCI-60 one-dose screen, 48 h (100 = growth as untreated, 0 = no growth, -100 = all killed)
- recorded_conditions: 10 µM
About 83,000 compounds went through this panel and 20% of them were active in at least one assay; those are over-represented in the sample as a whole. Activity calls are given as the source filed them. Rule for the calls: active = growth percent below 10; inactive = the rest.
measured_property: growth

# example entries with known answers
1) CC(C)OCc1cc(CN2CCN(c3cccc(Cl)c3)CC2)c(O)c2ncccc12
-59.1% (active)
2) C[C@]12CC[C@H]3[C@@H](CC=C4C[C@@H](O)CC[C@@]43C)[C@@H]1CC[C@@H]2C(=O)C/C=N/O
95.9% (inactive)
3) CC1(C)CCc2cc(-c3ccn(S(=O)(=O)c4ccc(Cl)cc4)n3)ccc2O1
92.2% (inactive)
4) CCOC(=O)C(=O)Cc1cccnn1
103% (inactive)

Ask: What measured growth goes with `O=C(Nc1cccc(F)c1)Nc1cccc(Cl)c1` ?
Reply: 101% (inactive)

Ask: Endpoint output: growth of `COC(=O)[C@]12CC[C@@H](C)[C@H](C)[C@@H]1C1=CC[C@@H]3[C@@]4(C)CC(=O)[C@H](O)[C@@](C)(CO)[C@@H]4C(=O)C[C@@]3(C)[C@]1(C)CC2` . Value?
Reply: -4.44% (active)

Ask: If you can, please state the reported growth value of `COc1ccc(/C(CS(=O)(=O)c2ccccc2)=N\O)cc1` .
Reply: 113% (inactive)

Ask: For the molecule shown here, `C/C(=N\NC(=O)c1sc(=S)n(C)c1N)c1cc2ccccc2o1` , give the reported growth.
Reply: 74.4% (inactive)

Ask: Give its growth value. Item: COc1ccc(C2C=C(c3ccc(Cl)c(Cl)c3)N=C3SC(C)=CN32)cc1 (configuration not stated)
Reply: 94.8% (inactive)

Ask: So what does the record say about growth for `COc1ccc(-c2csc(-c3cc(Cl)cc(Cl)c3Cl)n2)cc1` ?
Reply: 96.3% (inactive)

Ask: Which growth value belongs to `COc1cc(-c2nc3ccccc3[nH]2)ccc1OCc1nnc(-c2ccc(Br)cc2)o1` ?
Reply: 105% (inactive)

Ask: Which measured growth value corresponds to `COc1ccccc1NC1=C(N2CCCCC2)C(=O)c2ccccc2C1=O` ?
Reply: 98.2% (inactive)

Ask: Recorded growth of `CNC(=O)c1cc(Oc2ccc(NC(=O)Nc3ccc(Cl)c(OC(C)C)c3)c(F)c2)ccn1` , please.
Reply: 50.2% (inactive)

Ask: Name the recorded growth for `Oc1ccccc1-c1nnc(Cn2c(Cc3cccc4ccccc34)nc3ccccc32)o1` .
Reply: 83.1% (inactive)

Ask: Any idea what its growth is? The molecule is `C[N+]1=C(/C=C/c2ccc(I)cc2)C(C)(C)c2ccccc21`
Reply: 95.6% (inactive)

Ask: Consider the molecule shown here: `COc1cc2nc(Sc3sc(N)nc3C)n(-c3ccc(Oc4ccccc4)cc3)c(=O)c2cc1OC` What is its recorded growth?
Reply: 107% (inactive)

Ask: Which growth is reported for this molecule? `COc1ccc(Cn2cc3c(c2-c2cc(OC)c(OC)c(OC)c2)CCc2cnoc2-3)cc1[N+](=O)[O-]`
Reply: 43.4% (inactive)

Ask: For the molecule CC(=O)Nc1ccc2c(c1)C(N1CC3CCC(CC3)C1)c1ccccc1-2 (configuration not stated) , what growth is on record?
Reply: 96.7% (inactive)

Ask: Tell me the measured growth of `CCOc1nc(-c2ccccc2)cc2c(O)c(C(=O)N/N=C/c3ccc(OC)cc3)[nH]c(=O)c12` , please.
Reply: 98.5% (inactive)

Ask: What does the record list as growth for `Cc1cc(Nc2cccc(F)c2)nc(NCc2ccccc2)n1` ?
Reply: 19.8% (inactive)

Ask: What measured growth goes with `CCc1c(C)[nH]c(=O)c(C(N)=O)c1C#N` ?
Reply: 96.3% (inactive)

Ask: growth lookup needed for `CC(=O)OCC(COC(C)=O)(COC(C)=O)COC(C)=O` , thanks.
Reply: 101% (inactive)

Ask: Report growth for `COc1ccc(C(=O)n2nc(CC(=O)NCc3ccccc3)nc2N)cc1` please.
Reply: 97.5% (inactive)

Ask: I am curious: what growth value has been reported for `COCCOC(=O)NC(=O)Nc1ccc(C(=O)c2ccc(Cl)cc2)cc1` ?
Reply: 27.6% (inactive)

Ask: Quick one: growth of `CC(=O)/C(=C\c1ccc(Cl)cc1)c1ccccc1` ?
Reply: 39.3% (inactive)

Ask: Name the reported growth value associated with the molecule `COc1ccc(-c2nc3sc(-c4ccccc4)c(-c4ccccc4)n3c2/C=C/c2ccc(F)cc2)cc1`
Reply: 89.3% (inactive)

Ask: I'd like to know its growth. The molecule in question is `O=C(NCc1cn(Cc2cccc(Oc3ccccc3)c2)nn1)c1cccnc1Nc1ccccc1`
Reply: 55.1% (inactive)

Measured values drawn from PubChem BioAssay (NCI) for this set.
